Measured values drawn from patent US8871934B2 for this set.

# TESTED_ON: human PDHK2 (hPDHK2) (Homo sapiens (Human), UniProt Q15119)
# ASSAY_TEXT: Inhibitory action of PDHK activity in vitro (kinase reaction, residual PDH activity measured)
# Format: biochemical
# ASSAY_CONTEXT: PDHK inhibitory activity, class symbol of IC50
pIC50: −log10 of the molar value.
Would you mind telling me the reported pIC50 of each entry?

Consider the worked cases shown below.
- NC(=O)CCCOc1cc(Cl)c2c(c1)C(O)(C(F)(F)F)c1ccccc1-2 (stereo not shown): 6.00 to 7.00
- O=C1OCCCN1CCOc1ccc2c(c1)C(O)(C(F)(F)F)c1ccccc1-2 (stereo not shown): 6.00 to 7.00
- CCCc1ccc2c(c1)C(O)(C(F)(F)F)c1ccccc1-2 (stereo not shown): < 6.00

// for each compound below, give its pIC50
1. CN(C)C(=O)C1CN(C(=O)c2cc(Cl)c3c(c2)C(O)(C(F)(F)F)c2ccccc2-3)C1 (stereo not shown)
2. NC(=O)COc1cc(Cl)c2c(c1)C(O)(C(F)(F)F)c1ccccc1-2 (stereo not shown)
3. O=C(O)Cn1cc(-c2cc(F)cc3c2-c2ccccc2[C@]3(O)C(F)(F)F)cn1 (stereo in doubt)
4. COc1nc2c(cc1C(=O)N1CCC1)C(O)(C(F)(F)F)c1ccccc1-2 (stereo not shown)

Output:
1. > 7.00
2. 6.00 to 7.00
3. 6.00 to 7.00
4. 6.00 to 7.00
